# assay.procedure: gradient 5% acetonitrile 3 min, to 50% in 2 min, to 85% in 15 min, held 3 min, 100 µL/min
# condition.description: column: Zorbax Extend-C18 2.1 x 50 mm; eluents: water / acetonitrile, 0.1% formic acid
Note to self: RP-LC retention time under 700 s means Fulfilled, ties and anything higher get Not fulfilled.

Some solved cases for reference:
>  <compound.structure.string>
Cn1nc(C(=O)Nc2ccccc2F)cc1C(F)(F)F

>  <assigned.label>
Not fulfilled

$$$$
>  <compound.structure.string>
Cc1ccc2nc(C(=O)N3CCN(c4ccccn4)CC3)cn2c1

>  <assigned.label>
Fulfilled

$$$$

Query block: hey, is RP-LC retention time for `Cc1ncsc1CN1CC(n2cc(C(=O)NCC3CC3)nn2)C1` lower than 700 s or not?
Result block: Fulfilled

Query block: hey, is RP-LC retention time for `CCOc1ccccc1NC(=O)N1CCC(n2cnc3c(Cl)cccc3c2=O)CC1` lower than 700 s or not?
Result block: Not fulfilled

Query block: hey, is RP-LC retention time for `Cn1c(C(=O)NC2CC2)cc2c1CCN(Cc1ccc(F)cc1)C2` lower than 700 s or not?
Result block: Fulfilled

Query block: hey, is RP-LC retention time for `Cc1cc(C)c(-c2noc(C)n2)c(NC(=O)c2ccc(C)c(F)c2)n1` lower than 700 s or not?
Result block: Not fulfilled

====

# assay.procedure: gradient 5% acetonitrile 3 min, to 50% in 2 min, to 85% in 15 min, held 3 min, 100 µL/min
# condition.description: column: Zorbax Extend-C18 2.1 x 50 mm; eluents: water / acetonitrile, 0.1% formic acid
Exercise: for every item that follows, state its recorded RP-LC retention time.
Numbers only, in s.

For orientation, consider the following solved cases.
>  <compound>
COCCNC(=O)CN1c2ccc(F)cc2-c2ccccc2S1(=O)=O

>  <endpoint.label>
RP-LC retention time

>  <endpoint.unit>
s

>  <quantitative.readout>
756

$$$$
>  <compound>
COc1ccc2c(c1)sc1ncc(C(=O)N3CCN(c4ccccn4)CC3)c(=O)n12

>  <endpoint.label>
RP-LC retention time

>  <endpoint.unit>
s

>  <quantitative.readout>
589

$$$$
>  <compound>
CCOC(=O)c1cc(S(=O)(=O)N2CCCC2C(=O)NCc2cccs2)cn1C (stereo not given)

>  <endpoint.label>
RP-LC retention time

>  <endpoint.unit>
s

>  <quantitative.readout>
823

$$$$
>  <compound>
CC(C)CN1C(=O)c2cccn2CC1C(=O)NC1CCCCCC1 (stereo not given)

>  <endpoint.label>
RP-LC retention time

>  <endpoint.unit>
s

>  <quantitative.readout>
812

$$$$

// next item, RP-LC retention time requested
Query block: Return RP-LC retention time (reported value) for this compound: CN1C(=O)CCC2(CNC(=O)Nc3ccccc3)CCC=C12 (stereo not given)
Result block: 721

====

# assay.procedure: gradient 5% acetonitrile 3 min, to 50% in 2 min, to 85% in 15 min, held 3 min, 100 µL/min
# condition.description: column: Zorbax Extend-C18 2.1 x 50 mm; eluents: water / acetonitrile, 0.1% formic acid
Outcome label depends on RP-LC retention time relative to 700 s: at/above gives condition met, below gives condition not met.

Some solved cases for reference:
>  <molecule>
Fc1cc(-c2cccc3ncc(-c4cnn(C5CCNCC5)c4)nc23)cc(F)c1CN1CCOCC1

>  <assigned.label>
condition not met

$$$$
>  <molecule>
COc1cc(=O)c(C(N)=O)nn1-c1ccc(C)cc1

>  <assigned.label>
condition not met

$$$$
>  <molecule>
Cn1nc(N2CCC(NC(=O)Cc3c[nH]c4ccccc34)C2)ccc1=O (stereo not given)

>  <assigned.label>
condition not met

$$$$
>  <molecule>
Cc1ccc(NC(=O)Cn2cnc3nc(N4CCC(C(=O)NC5CC5)CC4)sc3c2=O)c(C)c1

>  <assigned.label>
condition not met

$$$$

Query block: Test whether the molecule `Cc1ccccc1Cn1c2ccccc2c2cnn(CC(=O)NCc3ccco3)c(=O)c21` records RP-LC retention time of 700 s or higher.
Result block: condition met

Query block: Test whether the molecule `c1ccc2c(N3CCCCCC3)nnc(-c3nc(C4CC4)no3)c2c1` records RP-LC retention time of 700 s or higher.
Result block: condition met

Query block: Test whether the molecule `CC(C)N1CCN(C(=O)c2csc(C(=O)NC3CCCC3)n2)CC1` records RP-LC retention time of 700 s or higher.
Result block: condition not met

Query block: Test whether the molecule `CCC(=O)N1CCc2sc(C(=O)NCc3ccccn3)cc2C1` records RP-LC retention time of 700 s or higher.
Result block: condition not met

Query block: Test whether the molecule `O=C(CCCS(=O)(=O)c1ccc(F)cc1)Nc1ncnc2sccc12` records RP-LC retention time of 700 s or higher.
Result block: condition not met

Query block: Test whether the molecule `Cc1ccc(-n2nc(C(=O)N3CCN(c4ccccn4)CC3)c(=O)n(C)c2=O)cc1` records RP-LC retention time of 700 s or higher.
Result block: condition not met

Query block: Test whether the molecule O=S(=O)(Cc1cccc(Cl)c1)NCC(c1ccc(F)cc1)N1CCOCC1 (stereo not given) records RP-LC retention time of 700 s or higher.
Result block: condition not met

Query block: Test whether the molecule `COc1ccc(N2CCN(c3cc(C)nc4nc(-c5ccc(C)cc5)nn34)CC2)cc1` records RP-LC retention time of 700 s or higher.
Result block: condition met
